Values were extracted from patent US7851637B2.

# MEASUREMENT_TARGET: Bcl-xL (Homo sapiens)
# Sequence (Q07817 whole entry): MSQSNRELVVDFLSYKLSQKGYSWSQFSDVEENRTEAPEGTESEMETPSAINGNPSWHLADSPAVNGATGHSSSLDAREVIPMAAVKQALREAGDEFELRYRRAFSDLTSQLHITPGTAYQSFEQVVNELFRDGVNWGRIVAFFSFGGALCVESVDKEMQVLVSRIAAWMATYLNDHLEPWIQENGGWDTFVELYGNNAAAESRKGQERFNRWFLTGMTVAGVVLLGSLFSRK
# TEST: Bcl-xL binding affinity analysis (fluorescence polarization binding assay)
# Design: scale not given here
# Text: Bcl-2 and Bcl-xL binding can be determined using a variety of known methods. One such assay is a sensitive and quantitative in vitro binding assay using fluorescence polarization (FP) described by Wang, J. -L.; Zhang, Z -J.; Choksi, S.; Sjam. S.; Lu, Z.; Croce, C. M.; Alnenri, E. S.; Komgold, R.; Huang, Z. Cell permeable Bcl-2 binding peptides: a chemical approach to apoptosis induction in tumor cells. Cancer Res. 2000, 60, 1498-1502). […]
READOUT: Bcl-XL binding affinity Ki

CC(C)CC(CN(C)C)N(Cc1cccc(CN2OC(CO)C(C(C)O)C2C(=O)NC2CC3CC(C2C)C3(C)C)c1)Cc1c(F)cccc1Cl (stereo not drawn) [Compound 307]; ♯
COc1c(CN2O[C@@H](CO)[C@@H]([C@H](C)O)[C@H]2C(=O)N[C@H]2C[C@H]3C[C@@H]([C@@H]2C)C3(C)C)cccc1-c1ccc(C(=O)N(C)C)cc1 [Compound 174]; ♯
CC(O)C1C(CO)ON(Cc2cccc(CN(CCN(C)C)Cc3c(Cl)cccc3Cl)c2)C1C(=O)NC1CC2CC(C1C)C2(C)C (stereo not drawn) [Compound 373]; ♯

* * *

Data export: Ki values recorded with Bcl-2 (Homo sapiens, UniProt P10415).
Sequence (P10415 whole entry): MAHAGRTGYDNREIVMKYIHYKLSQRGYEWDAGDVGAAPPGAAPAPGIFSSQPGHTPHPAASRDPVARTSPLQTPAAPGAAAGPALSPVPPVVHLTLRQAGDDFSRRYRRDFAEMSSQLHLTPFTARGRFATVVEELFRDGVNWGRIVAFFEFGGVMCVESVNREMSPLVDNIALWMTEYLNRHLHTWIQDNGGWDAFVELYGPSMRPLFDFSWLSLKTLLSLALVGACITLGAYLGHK

COc1ccc(CN(CCN(C)C)Cc2cccc(CN3OC(CO)C(C(C)O)C3C(=O)NC3CC4CC(C3C)C4(C)C)c2)cc1 (centres unmarked); < 800 nM

Ki lookup needed for "C[C@@H]1[C@@H](NC(=O)[C@@H]2[C@H]([C@H](C)O)[C@H](CO)ON2Cc2cccc(N3CCN(S(C)(=O)=O)CC3)c2)C[C@H]2C[C@@H]1C2(C)C" , thanks.
< 800 nM

Ki lookup needed for CC(=O)Nc1ccc(-c2cccc(CN3O[C@@H](CO)[C@@H]([C@H](C)O)[C@H]3C(=O)NC3C[C@H]4C[C@@H]([C@@H]3C)C4(C)C)c2)cc1 (some centres unmarked) , thanks.
< 800 nM

Ki lookup needed for "C[C@@H]1[C@@H](NC(=O)[C@@H]2[C@H]([C@H](C)O)[C@H](CO)ON2Cc2cccc(-c3ccc(C(N)=O)cc3)c2)C[C@H]2C[C@@H]1C2(C)C" , thanks.
< 800 nM

Ki lookup needed for "COc1c(CN2O[C@@H](CO)[C@@H]([C@H](C)O)[C@H]2C(=O)N[C@H]2C[C@H]3C[C@@H]([C@@H]2C)C3(C)C)cccc1-c1cccc(C(=O)N[C@H](CC2CCCCC2)CN(C)C)c1" , thanks.
< 800 nM

Ki lookup needed for "COc1c(CN2O[C@@H](CO)[C@@H]([C@H](C)O)[C@H]2C(=O)N[C@H]2C[C@H]3C[C@@H]([C@@H]2C)C3(C)C)cccc1-c1cccc(C(=O)N[C@@H](CCc2ccccc2)CN(C)C)c1" , thanks.
< 800 nM

Ki lookup needed for C[C@@H](O)[C@H]1[C@@H](CO)ON(Cc2cccc(C#CC(O)c3ccc(-n4ccnc4)cc3)c2)[C@H]1C(=O)NCCCN(C)c1ccccc1 (some centres unmarked) , thanks.
800 to 6000 nM

Ki lookup needed for C[C@@H](O)[C@H]1[C@@H](CO)ON(Cc2cccc(C#CC(O)Cc3ccccc3)c2)[C@H]1C(=O)NCCCN(C)c1ccccc1 (some centres unmarked) , thanks.
800 to 6000 nM

Ki lookup needed for CC(C)CC(CN(C)C)NC(=O)c1cccc(CN2OC(CO)C(C(C)O)C2C(=O)NC2CC3CC(C2C)C3(C)C)c1 (centres unmarked) , thanks.
< 800 nM

Ki lookup needed for "CC(C)C[C@@H](CN(C)C)N(Cc1ccccc1)Cc1cccc(CN2O[C@@H](CO)[C@@H]([C@H](C)O)[C@H]2C(=O)NCc2cccc3ccccc23)c1" , thanks.
800 to 6000 nM

Ki lookup needed for "COc1c(CN2O[C@@H](CO)[C@@H]([C@H](C)O)[C@H]2C(=O)N[C@H]2C[C@H]3C[C@@H]([C@@H]2C)C3(C)C)cccc1-c1cccc(C(=O)N[C@H](CC(C)C)CN2CCCCCC2)c1" , thanks.
< 800 nM
